Each entry below lists one item and its recorded concentration at 2 h value.
assay: In-vivo absorbency (plasma concentrations & pharmacokinetic parameters); design: species or system SD rat (male); settings: plasma; 120 min; SD male rat, iv 20 mg/kg; read-out: Plasma Conc.
Your answer is read as ng/mL, so omit the unit and give the number.

Example compounds with recorded concentration at 2 h:
CC[n+]1c(N)cc(N)nc1SCC1=C(C(=O)[O-])N2C(=O)C(NC(=O)/C(=N\OC(C)(C)C(=O)O)c3csc(N)n3)C2SC1 (stereo not drawn) [Compound I-2]: 400
CCC[n+]1c(N)cc(N)nc1SCC1=C(C(=O)[O-])N2C(=O)C(NC(=O)/C(=N\OC(C)C(=O)O)c3csc(N)n3)C2SC1 (stereo not drawn) [Compound I-45]: 3600
CC(O/N=C(\C(=O)NC1C(=O)N2C(C(=O)[O-])=C(CSc3nc(N)cc(N)[n+]3C)CSC12)c1csc(N)n1)C(=O)O (stereo not drawn) [Compound I-4]: 400
Cc1c(N)nc(SCC2=C(C(=O)[O-])N3C(=O)C(NC(=O)/C(=N\OC(C)(C)C(=O)O)c4csc(N)n4)C3SC2)[n+](C)c1N (stereo not drawn) [Compound I-30]: 2700

The value of concentration at 2 h measured for the compound CC[n+]1c(N)cc(N)nc1SCC1=C(C(=O)[O-])N2C(=O)C(NC(=O)/C(=N\OC(C)C(=O)O)c3csc(N)n3)C2SC1 (stereo not drawn) [Compound I-5] turned out to be 3000

The value of concentration at 2 h measured for the compound CC[n+]1c(SCC2=C(C(=O)[O-])N3C(=O)C(NC(=O)/C(=N\OC(C)(C)C(=O)O)c4csc(N)n4)C3SC2)nc(N)c(C)c1N (stereo not drawn) [Compound I-32] turned out to be 1800

---

test system: Serratia marcescens ATCC 27117; assay: Antibacterial activity, MIC; assay type: cell-based; details: ATCC27117, ATCC 27117, agar two-fold dilution, 37° C., 20 hours, read-out: MIC
Each entry below lists one item and its recorded MIC value.
Your answer is read as mg/L, so omit the unit and give the number.

Example compounds with recorded MIC:
C#CCO/N=C(\C(=O)NC1C(=O)N2C(C(=O)[O-])=C(CSc3nc(N)cc(N)[n+]3CC)CSC12)c1csc(N)n1 (stereo not shown) [Compound I-47]: 0.13
Cc1c(N)nc(SCC2=C(C(=O)[O-])N3C(=O)C(NC(=O)/C(=N\OC(C)(C)C(=O)O)c4csc(N)n4)C3SC2)[n+](C)c1N (stereo not shown) [Compound I-30]: 0.13
C=CCO/N=C(\C(=O)NC1C(=O)N2C(C(=O)[O-])=C(CSc3nc(N)cc(N)[n+]3CC)CSC12)c1csc(N)n1 (stereo not shown) [Compound I-50]: 0.25

Known value: Serratia marcescens ATCC 27117 MIC of the compound CCCC[n+]1c(N)cc(N)nc1SCC1=C(C(=O)[O-])N2C(=O)C(NC(=O)/C(=N\OC(C)(C)C(=O)O)c3nsc(N)n3)C2SC1 (stereo not shown) [Compound I-29] equals 0.5

Known value: Serratia marcescens ATCC 27117 MIC of the compound CCO/N=C(\C(=O)NC1C(=O)N2C(C(=O)[O-])=C(CSc3nc(N)cc(N)[n+]3C)CSC12)c1csc(N)n1 (stereo not shown) [Compound I-11] equals 0.13

Known value: Serratia marcescens ATCC 27117 MIC of the compound C#CCO/N=C(\C(=O)NC1C(=O)N2C(C(=O)[O-])=C(CSc3nc(N)cc(N)[n+]3C)CSC12)c1csc(N)n1 (stereo not shown) [Compound I-46] equals 0.13

Known value: Serratia marcescens ATCC 27117 MIC of the compound CC(O/N=C(\C(=O)NC1C(=O)N2C(C(=O)[O-])=C(CSc3nc(N)cc(N)[n+]3N)CSC12)c1csc(N)n1)C(=O)O (stereo not shown) [Compound I-14] equals 0.031

---

system: Klebsiella pneumoniae; assay: Antibacterial activity against clinically isolated strains, MIC; format: cell-based; conditions: 10 clinical isolates, broth microdilution test, read-out: MIC 90%
measurement-name: MIC90 (µg/mL)
Your answer is read as µg/mL, so omit the unit and give the number.

CCO/N=C(\C(=O)NC1C(=O)N2C(C(=O)[O-])=C(CSc3nc(N)cc(N)[n+]3N)CSC12)c1nsc(N)n1 (stereo not drawn) [Compound I-17]: 0.25

The value of MIC90 measured for the molecule C#CCO/N=C(\C(=O)NC1C(=O)N2C(C(=O)[O-])=C(CSc3nc(N)cc(N)[n+]3CC)CSC12)c1csc(N)n1 (stereo not drawn) [Compound I-47] turned out to be 0.25

The value of MIC90 measured for the molecule CCO/N=C(\C(=O)NC1C(=O)N2C(C(=O)[O-])=C(CSc3nc(N)cc(N)[n+]3N)CSC12)c1csc(N)n1 (stereo not drawn) [Compound I-16] turned out to be 0.13

The value of MIC90 measured for the molecule CC[n+]1c(N)cc(N)nc1SCC1=C(C(=O)[O-])N2C(=O)C(NC(=O)/C(=N\OC(C)(C)C(=O)O)c3csc(N)n3)C2SC1 (stereo not drawn) [Compound I-2] turned out to be 0.13

The value of MIC90 measured for the molecule CCC[n+]1c(N)cc(N)nc1SCC1=C(C(=O)[O-])N2C(=O)C(NC(=O)/C(=N\OC(C)C(=O)O)c3csc(N)n3)C2SC1 (stereo not drawn) [Compound I-45] turned out to be 0.13

The value of MIC90 measured for the molecule C#CCO/N=C(\C(=O)NC1C(=O)N2C(C(=O)[O-])=C(CSc3nc(N)cc(N)[n+]3C)CSC12)c1csc(N)n1 (stereo not drawn) [Compound I-46] turned out to be 0.13

---

experiment: In-vivo absorbency (plasma concentrations & pharmacokinetic parameters); parameters: species or system SD rat (male); conditions: rat, in vivo, iv, 20 mg/kg
measurement-name: concentration at 1 min

The value of concentration at 1 min measured for the molecule CC(C)(O/N=C(\C(=O)N[C@@H]1C(=O)N2C(C(=O)[O-])=C(C[n+]3ccccc3)CS[C@H]12)c1csc(N)n1)C(=O)O [Ceftazidime, reference compound] turned out to be 135 µg/mL

---

System: Bacillus cereus ATCC 11778
Test: Antibacterial activity, MIC
Assay type: cell-based
Conditions: ATCC11778, ATCC 11778, agar two-fold dilution, 37° C., 20 hours, read-out: MIC
Experimental: Also, the in vitro antibacterial activity was determined by the by a two-fold dilution method as described below: That is, the two-fold serial dilutions of the compound were made dispersed in Muller-Hinton agar medium. 2 μl of standard test strain which had the 10^7 CFU per ml was inoculated on the medium, and was incubated at 37° C. for 20 hours.
measurement-name: log10(MIC) (log10 of the value in µg/mL)
A difference of one corresponds to tenfold MIC; all values are log10 with MIC in µg/mL.

Example compounds with recorded log10(MIC):
C#CCO/N=C(\C(=O)NC1C(=O)N2C(C(=O)[O-])=C(CSc3nc(N)cc(N)[n+]3C)CSC12)c1csc(N)n1 (stereo not drawn): 0.90
C=CC[n+]1c(N)cc(N)nc1SCC1=C(C(=O)[O-])N2C(=O)C(NC(=O)/C(=N\OCC(=O)O)c3csc(N)n3)C2SC1 (stereo not drawn): 1.81
C=CC[n+]1c(N)cc(N)nc1SCC1=C(C(=O)[O-])N2C(=O)C(NC(=O)/C(=N\OCC)c3nsc(N)n3)C2SC1 (stereo not drawn): 1.20
CC[n+]1c(N)cc(N)nc1SCC1=C(C(=O)[O-])N2C(=O)C(NC(=O)/C(=N\OC)c3nsc(N)n3)C2SC1 (stereo not drawn): 1.51
CC[n+]1c(N)cc(N)nc1SCC1=C(C(=O)[O-])N2C(=O)C(NC(=O)/C(=N\OCC(=O)O)c3csc(N)n3)C2SC1 (stereo not drawn): 1.81
Cc1c(N)nc(SCC2=C(C(=O)[O-])N3C(=O)C(NC(=O)/C(=N\OC(C)(C)C(=O)O)c4csc(N)n4)C3SC2)[n+](C)c1N (stereo not drawn): 2.11

The value of log10(MIC) measured for the compound CCCC[n+]1c(N)cc(N)nc1SCC1=C(C(=O)[O-])N2C(=O)C(NC(=O)/C(=N\OC(C)(C)C(=O)O)c3nsc(N)n3)C2SC1 (stereo not drawn) turned out to be 2.11

The value of log10(MIC) measured for the compound CCO/N=C(\C(=O)NC1C(=O)N2C(C(=O)[O-])=C(CSc3nc(N)cc(N)[n+]3C)CSC12)c1csc(N)n1 (stereo not drawn) turned out to be 1.51

---

test system: Pseudomonas aeruginosa ATCC 27853; experiment: Antibacterial activity, MIC; format: cell-based; settings: ATCC27853, ATCC 27853, agar two-fold dilution, 37° C., 20 hours, read-out: MIC
measurement-name: MIC (µg/mL)
Your answer is read as µg/mL, so omit the unit and give the number.

CCC[n+]1c(N)cc(N)nc1SCC1=C(C(=O)[O-])N2C(=O)C(NC(=O)/C(=N\OC(C)C(=O)O)c3csc(N)n3)C2SC1 (stereo not drawn): 2
CC(C)(O/N=C(\C(=O)NC1C(=O)N2C(C(=O)[O-])=C(CSc3nc(N)cc(N)[n+]3N)CSC12)c1nsc(N)n1)C(=O)O (stereo not drawn): 1

Now, please, on to the next molecule.
The value of MIC measured for the molecule CO/N=C(\C(=O)NC1C(=O)N2C(C(=O)[O-])=C(CSc3nc(N)cc(N)[n+]3C)CSC12)c1csc(N)n1 (stereo not drawn) turned out to be 8

Value source: patent US5202315A
